Measured values drawn from PubChem BioAssay (NCI) for this set.

- System: NCI-H522 lung
- Assay Overview: NCI tumour cell line growth inhibition, 48 h
Recorded Metric: TGI (µM)
Field: numeric (µM). Do not append units.

Could you tell me which TGI is on file for COC1=CC(=O)C(C2CC(=O)c3c(O)cc(O)cc3O2)=CC1=O (stereo not given) ?
30.8

###

- System: HCT-15 colon
- Assay Overview: NCI tumour cell line growth inhibition, 48 h
Recorded Metric: TGI

These recorded examples may help you get a feel for the data.
[
  {
    "Compound": "O=C(/C=C/c1ccncc1)c1cc(Cl)ccc1O",
    "Reported Value": "63.8 µM"
  },
  {
    "Compound": "CC1=CC(O)(c2ccc(-c3ccccc3Cl)cc2)OC1=O (stereo unspecified)",
    "Reported Value": "> 100 µM"
  },
  {
    "Compound": "C=C1NC(=O)C(C(C)CC)NC(=O)C2CSCC(NC(=O)CCC(=O)O)C(=O)NC(Cc3ccccc3)C(=O)NC(C)C(=O)NC(CC(C)CC)C(=O)NC(C(=O)NC(Cc3ccccc3)C(=O)N3CCCC3C(=O)N2)C(C)OC(=O)C(CO)NC(=O)C(C(O)COC)N(C)C(=O)C(C(C)C)NC(=O)C(CC(C)CC)NC1=O (stereo unspecified)",
    "Reported Value": "> 6 µM"
  },
  {
    "Compound": "CCN(CC)/C(SCc1ccccc1)=C(\\C(Cl)=C(Cl)Cl)[N+](=O)[O-]",
    "Reported Value": "71.7 µM"
  },
  {
    "Compound": "COc1cccc2c1OC1(C=C2)Oc2ccccc2C(=O)N1C (stereo unspecified)",
    "Reported Value": "> 100 µM"
  }
]

Need TGI, item OCCc1ccsc1-c1sc(-c2cc(CCO)c(-c3sccc3CCO)s2)cc1CCO
40.5 µM
